Experimental target: T1, recombinant cynomolgus Ang2-FLD (cynomolgus)
T1 construct: domain: FLD; also called cyno Ang2-FLD
Method notes: SPR (Biacore T100), binder on CM5 chip, Ang2-FLD as analyte
Documented kon across a set of binders
Answer format: numeric, M⁻¹ s⁻¹ implied, no suffix.

Example binders with recorded kon:
VHH 1D01 (VHH, also called 001D01; not shown: C-terminal c-myc tag and His6 tag) VHH: EVQLVESGGGLVQAGGSLRLSCAASGFTFDDYALGWFRQAAGKEREGVSCIRCSDGSTYYADSVKGRFTISSDNAKNTVYLQMNSLKPEDTAVYYCAASIVPRSKLEPYEYDAWGQGTQVTVSS
9.9e+06
VHH 13A02 (VHH, also called 013A02; not shown: C-terminal c-myc tag and His6 tag) VHH: EVQLVESGGGLVQAGGSLRLSCAASGGTFSSYSMGWFRQAPGKEREFIAAINWNGDSTYYEDSVKGRFTVSRDNAKNTVYLQMNSLKPEDTAVYYCAATGWGRAYEQAYEYDVWGQGTQVTVSS
1.1e+07
VHH 11B07 (VHH, also called 011B07; not shown: C-terminal c-myc tag and His6 tag) VHH: EVQLVESGGGLVQVGDSLRLSCAASGRTFSTYLMVGWFRQAPGKEREFAAGIWSSGDTAYADSVRGRFTISRDNAKNTVYLQMNSLKTEDTAVYYCAGSYDGNYYIPGFYKDWGQGTQVTVSS
1.2e+07
VHH 24B05 (VHH, also called 024B05; not shown: C-terminal c-myc tag and His6 tag) VHH: EVQLVESGGGLVQPGGSLRLSCAASGFTLDYYAIGWFRQAPGKEWEGVSCISSSDGSTYYADSVKGRFTISRDNAKNTVYLQMNSLKPEDTAVYYCATDSIVCGSYYGMDYWGKGTQVTVSS
4.1e+06
VHH 7G08 (VHH, also called 007G08; not shown: C-terminal c-myc tag and His6 tag) VHH: EVQLVESGGGLVQPGGSLRLSCAASGFALDYYAIGWFRQVPGKEREGVSCISSSDGITYYVDSVKGRFTISRDNAKNTVYLQMNSLKPEDTAVYYCATDSGGYIDYDCMGLGYDYWGQGTQVTVSS
1.5e+06

Q) Query (binder): VHH 10H02 (VHH, also called 010H02; not shown: C-terminal c-myc tag and His6 tag) VHH: EVQLVESGGGSVQAGGSLRLSCAASGFTFDDYAIGWFRQAPGKEREGVSCISSSDGSTNYADSVKGRFTISSDTAKNTVYLQMNSLKPEDTAVYYCTAVPATRRTPQMVDANMCWLAEYEYDYWGQGTQVTVSS ; field requested: kon
A) 6.9e+06

Q) Next record, please: VHH 28D10 (VHH, also called 028D10; not shown: C-terminal c-myc tag and His6 tag) VHH: EVQLVESGGGLVQAGGSLRLSCAASGFTLDDYAIGWFRQAPGKEREGVSCIRDSDGSTYYADSVKGRFTISSDNDKNTVYLQMNSLKPEDTAVYYCAAVPAGRLRFGEQWYPLYEYDAWGQGTQVTVSS
A) 1.8e+07

Data origin, for the record: patent US20230203146A1
